# EXPERIMENTAL_TARGET: Nuclear receptor subfamily 1 group I member 3 (Homo sapiens) (UniProt Q14994)
# Sequence (Q14994 whole entry, looked up): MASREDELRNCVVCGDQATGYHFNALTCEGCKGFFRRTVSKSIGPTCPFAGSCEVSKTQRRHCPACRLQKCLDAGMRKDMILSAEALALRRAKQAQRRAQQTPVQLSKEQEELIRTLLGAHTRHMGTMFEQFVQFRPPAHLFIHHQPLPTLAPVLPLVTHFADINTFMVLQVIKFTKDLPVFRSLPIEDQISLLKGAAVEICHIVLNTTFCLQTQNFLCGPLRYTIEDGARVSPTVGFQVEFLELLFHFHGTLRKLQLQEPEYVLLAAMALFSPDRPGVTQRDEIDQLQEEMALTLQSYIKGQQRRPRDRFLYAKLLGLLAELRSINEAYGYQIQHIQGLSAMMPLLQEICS
# ASSAY_METHOD_TEXT: qHTS assay to identify small molecule antagonists of the constitutive androstane receptor (CAR) signaling pathway (AID 1224838);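 also: HepG2 cells stably expressing hCAR with CYP2B6 luciferase reporter stimulated by CITCO; nearly all actives have a fitted effect of over 40% in size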
# MEASUREMENT_CONDITIONS: HepG2-CYP2B6-hCAR luciferase, CITCO-stimulated, 24 h; series mostly up to 92.4 µM
# Excerpt: U.S. Tox21 Program National Center for Advancing Translational Sciences [NCATS] NIH Chemical Genomics Center [NCGC] U.S. Environmental Protection Agency [EPA] National Institutes of Environmental Health Sciences [NIEHS] National Toxicology Program [NTP] U.S. Food and Drug Administration [FDA] […] Tox21 Assay Protocol Summary: A double-stable (hCAR and CYP2B6-2.2kb) transfected cell line, derived from human hepatoma (HepG2) cells, was utilized for the duration of the quantitative high-throughput screens. […]
Records with an inconclusive call do not appear. Activity calls are given as the source filed them. Calls follow the shape of the dose curve; as a rule, active = well fitted inhibition curve with a large enough effect in the repeat runs; inconclusive = weak or mixed curves, or effect the other way; inactive = no such curve, though single readings can be large or run the other way.
API: response.call in active, inactive

Q: What outcome does the record of this test show for C/C(=N\[Si](C)(C)C)O[Si](C)(C)C ?
Ans: inactive

Q: # lookup: test call for Nc1c(Br)cc([N+](=O)[O-])cc1Br
Ans: inactive

Q: For O=C1OC(=O)c2cc(-c3ccc4c(c3)C(=O)OC4=O)ccc21 , what call appears in the results of this test?
Ans: inactive

Q: // return assay outcome for CCOc1nc(F)cc2nc(S(=O)(=O)Nc3c(Cl)cccc3C(=O)OC)nn12
Ans: inactive

Q: # outcome recorded in this test, key = Cc1cc(F)ccc1-c1cc(N2CC[C@@H](O)[C@H]2CO)ncc1N(C)C(=O)C(C)(C)c1cc(C(F)(F)F)cc(C(F)(F)F)c1
Ans: inactive

Q: Returns: the outcome recorded for N#Cc1nc(Cl)c(Cl)c(Cl)c1Cl in this assay.
Ans: active

Q: GET /call?item= Clc1cccc(Cl)n1 returns the recorded outcome of this test.
Ans: inactive

Q: Test call for this molecule, please: CCOC=C(C(=O)OCC)C(=O)OCC
Ans: inactive

Q: Recorded test call requested for Oc1ccc2c(c1)CCC2
Ans: inactive

Q: Assay result, entry O=c1cc[nH]cc1 — outcome?
Ans: inactive

Q: Record lookup: outcome of this test for CC(O)(c1ccc(Cl)cc1)c1ccc(Cl)cc1 ?
Ans: inactive

Q: What is the recorded call for this molecule in the test? Cc1cccc(C)c1C
Ans: inactive

Q: Hi, sorry to bother you, what did the test record for O=C1OC2(c3ccccc31)c1ccc(O)c(Br)c1Oc1c2ccc(O)c1Br ?
Ans: inactive

Q: Could you kindly confirm the outcome this assay logged for Cc1ccc(N=Nc2c(O)ccc3ccccc23)c(C)c1 ?
Ans: inactive

Q: What is the recorded call for this molecule in the test? CCCCCCCCCCCCCCCCCCNC(=O)OC1CCN(C(=O)OC[C@H](COC(=O)N(Cc2cccc[n+]2CC)C(=O)c2ccccc2OC)OC)CC1
Ans: inactive

Q: Write down the call the test reported for this molecule. Item: CN1CCN(CCCN2c3ccccc3Sc3ccc(C(F)(F)F)cc32)CC1
Ans: inactive

Q: # fetch the recorded call for CCCCCCCCSCc1cc(C)c(O)c(CSCCCCCCCC)c1 here
Ans: inactive
